Kindly supply the reported IC50 values for the records listed here.
# targetEntity: UniProt:K4FQI5
# Sequence (K4FQI5 whole entry): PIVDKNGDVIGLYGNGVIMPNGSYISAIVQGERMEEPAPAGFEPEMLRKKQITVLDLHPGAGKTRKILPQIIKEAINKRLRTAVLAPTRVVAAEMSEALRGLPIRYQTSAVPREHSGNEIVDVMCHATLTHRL
# assayDetails: Functional biochemical assay to identify treatments for viral infectious disease that targets West Nile NS2B-NS3 protease. Utilizing a direct enzyme activity measurement method, reading the fluorescence intensity is used to characterize the relative potency of inhibitors as IC50.

Before answering, review these 4 worked examples.
{"molecule": "O=C(Nc1ccc2c(c1)CN[C@H]2CO)c1cc(F)cc2[nH]ncc12", "IC50": "4.53 µM"}
{"molecule": "O=C(NCCC1CC1)[C@H](Nc1ccc2c(c1)CNC2)c1cc(Cl)cc(C2CC2)c1", "IC50": "0.698 µM"}
{"molecule": "O=C(O)c1cc(Cl)ccc1S(=O)(=O)NC1CCN(c2nc(C3CC3)cc(C(F)(F)F)n2)CC1", "IC50": "48.5 µM"}
{"molecule": "c1cc(C2CCN(Cc3c[nH]c4ccccc34)CC2)c2ccncc2c1", "IC50": "> 99.5 µM"}

Below: the item to evaluate.
# input Returns the measured IC50 for the input compound. Input: O=C(O)CCCc1cc(NC(=O)c2cc(F)cc3[nH]ncc23)cc2c1CNC2
# output 1.51 µM

From: ChEMBL document CHEMBL5604061
